assay.target: T1, PF4/heparin complex (human PF4 complexed with heparin) (human, UniProt P02776 32-101)
T1 construct: Multimeric complex of PF4 with heparin (not a protein); In the EIAs: PF4 captured on biotinylated heparin on streptavidin plates; In the SRA: platelets with 0.2 U/mL heparin; also called PF4 and heparin complexes
T1 sequence: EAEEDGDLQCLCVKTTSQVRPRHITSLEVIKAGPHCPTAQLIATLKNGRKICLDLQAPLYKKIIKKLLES
run.description: competition EIA, scFv 50 µg/mL; competitor HIT-negative sera antibodies, n=10
Each entry below lists one item and its recorded mean OD405nm of bound serum IgG (+ scFv) value.
Entry rule: numbers only, all in OD405nm.

Illustrative cases are given below, each with its answer.
binder: Mutant D scFv, scFv(Y156H) (scFv, VL-linker-VH; histidine-tagged, from E. coli BL21; also called Mut D; not shown: histidine tag from the pADL-22c vector) scFv: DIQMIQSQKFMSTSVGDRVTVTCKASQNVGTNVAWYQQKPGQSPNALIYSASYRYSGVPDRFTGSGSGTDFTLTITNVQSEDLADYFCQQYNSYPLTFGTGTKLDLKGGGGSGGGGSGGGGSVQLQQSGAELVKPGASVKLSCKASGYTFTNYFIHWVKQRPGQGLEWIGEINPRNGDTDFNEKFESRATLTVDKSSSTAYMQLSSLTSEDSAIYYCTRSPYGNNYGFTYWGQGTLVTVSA
unit.abbreviation: OD405nm
recorded.result: 1
//
binder: Mutant E scFv, scFv(Y156H, D180G, Q233P) (scFv, VL-linker-VH; histidine-tagged, from E. coli BL21; also called Mut E; not shown: histidine tag from the pADL-22c vector) scFv: DIQMIQSQKFMSTSVGDRVTVTCKASQNVGTNVAWYQQKPGQSPNALIYSASYRYSGVPDRFTGSGSGTDFTLTITNVQSEDLADYFCQQYNSYPLTFGTGTKLDLKGGGGSGGGGSGGGGSVQLQQSGAELVKPGASVKLSCKASGYTFTNYFIHWVKQRPGQGLEWIGEINPKNGDTGFNEKFESRATLTVDKSSSTAYMQLSSLTSEDSAIYYCTRSPYGNNYGFTYWGPGTLVTVSA
unit.abbreviation: OD405nm
recorded.result: 1.08

Consider now this further binder.
Entry Mutant F scFv, scFv(E183V, E186K, G223R) (scFv, VL-linker-VH; histidine-tagged, from E. coli BL21; also called Mut F; not shown: histidine tag from the pADL-22c vector) scFv: DIQMIQSQKFMSTSVGDRVTVTCKASQNVGTNVAWYQQKPGQSPNALIYSASYRYSGVPDRFTGSGSGTDFTLTITNVQSEDLADYFCQQYNSYPLTFGTGTKLDLKGGGGSGGGGSGGGGSVQLQQSGAELVKPGASVKLSCKASGYTFTNYFIYWVKQRPGQGLEWIGEINPRNGDTDFNVKFKSRATLTVDKSSSTAYMQLSSLTSEDSAIYYCTRSPYRNNYGFTYWGQGTLVTVSA : reported mean OD405nm of bound serum IgG (+ scFv) = ?
1.19
